- systemName: Dimer of Gag-Pol polyprotein [501-599] (Human immunodeficiency virus 1)
- Construct: 501-599
- procedureDetails: Protease Inhibition Assay
quantity: pKi
Answer as the number alone; pKi is minus log10 of concentration in mol/L.

Data request, read-out pKi, for "Cc1ccc(S(=O)(=O)N(CC(C)C)[C@@H](CCCCNC(=O)OCC2c3ccccc3-c3ccccc32)C(=N)N)cc1"
6.55

Find the recorded pKi belonging to "Cc1ccc(S(=O)(=O)N(CC(C)C)[C@H](CO)CCCCNC(=O)OCC2c3ccccc3-c3ccccc32)cc1" and report it.
6.98

// lookup pKi for "Cc1ccc(S(=O)(=O)N(CC(C)C)[C@@H](CCCCNC(=O)OCC2c3ccccc3-c3ccccc32)C(N)=S)cc1"
6.90

Field request: pKi | item: "Cc1ccc(S(=O)(=O)N(CC(C)C)[C@@H](CCCCNC(=O)OCC2c3ccccc3-c3ccccc32)C(=O)NO)cc1"
6.61

If you can, please state the reported pKi value of "Cc1ccc(S(=O)(=O)N(CC(C)C)[C@@H](CCCCNC(=O)OCC2c3ccccc3-c3ccccc32)C(N)=O)cc1" .
6.97

Given the entry "Cc1ccc(S(=O)(=O)N(CC(C)C)[C@@H](CCCCNC(=O)OCC2c3ccccc3-c3ccccc32)C(=O)NN)cc1" , report its measured pKi.
6.60

Returns the measured pKi for the input molecule. Input: "Cc1ccc(S(=O)(=O)N(CC(C)C)[C@@H](CCCCNC(=O)C2c3ccccc3-c3ccccc32)C(=O)O)cc1"
6.98
